# Tested on: LG0567-F671-PDC KRAS tumor spheroid viability
# test details: Anticancer human tumor LG0567-F671-PDC patient-derived lung adenocarcinoma cell line growth inhibition [KRAS2]
# test parameters: second compound 0.1 µM; first compound 0.0316 µM; stronger effect = lower value; spheroids with HUVEC and MSC
Param label: returns class 1 when viability, T/C < 20%, returns class 0 otherwise, including exact equality.

COC(=O)c1ccc2c(C(=Nc3ccc(N(C)C(=O)CN4CCN(C)CC4)cc3)c3ccccc3)c(O)[nH]c2c1 + C=CC(=O)N1CCN(c2nc(=O)n(-c3c(C)ccnc3C(C)C)c3nc(-c4c(O)cccc4F)c(F)cc23)C(C)C1 = class 0
Cn1nccc1Nc1nccc(-c2cc3c(s2)C(C)(C)N(CCN2CCOCC2)C3=O)n1 + CNCc1ccccc1-c1csc(C(C)Nc2nc(C)nc3cc(OC)c(OC)cc23)c1 = class 0
O=C(c1cc(Cc2n[nH]c(=O)c3ccccc23)ccc1F)N1CCN(C(=O)C2CC2)CC1 + C=CC(=O)N1CCN(c2nc(=O)n(-c3c(C)ccnc3C(C)C)c3nc(-c4c(O)cccc4F)c(F)cc23)C(C)C1 = class 0

Q) Item CC1COCCN1c1cc(-c2ccnn2C)c2ccnc(-c3ccn[nH]3)c2n1 (stereo not given) + C=CC(=O)N1CCN(c2nc(OCC3CCCN3C)nc3c2CCN(c2cccc4cccc(C)c24)C3)CC1CC#N : viability, T/C beneath 20%, strictly?
A) class 0

Q) Item CC(=O)Nc1cccc(-n2c(=O)n(C3CC3)c(=O)c3c(Nc4ccc(I)cc4F)n(C)c(=O)c(C)c32)c1 + COc1cc2nc(C)nc(NC(C)c3cc(N)cc(C(F)(F)F)c3)c2cc1OC1CCOC1 : viability, T/C beneath 20%, strictly?
A) class 1

----------
# Tested on: LG0567-F671-PDC KRAS tumor spheroid viability
# test details: Anticancer human tumor LG0567-F671-PDC cell line growth inhibition [KRAS2]
# test parameters: compound 10 µM; stronger effect = lower value; spheroids with HUVEC and MSC
quantity: viability, T/C

COC(=O)c1ccc2c(C(=Nc3ccc(N(C)C(=O)CN4CCN(C)CC4)cc3)c3ccccc3)c(O)[nH]c2c1 = 94.1% [middle of 5 runs]
O=C(c1cc(Cc2n[nH]c(=O)c3ccccc23)ccc1F)N1CCN(C(=O)C2CC2)CC1 = 97.9% [middle of 5 runs]
CC1(C)CCC(CN2CCN(c3ccc(C(=O)NS(=O)(=O)c4ccc(NCC5CCOCC5)c([N+](=O)[O-])c4)c(Oc4cnc5[nH]ccc5c4)c3)CC2)=C(c2ccc(Cl)cc2)C1 = 12.4% [middle of 5 runs]

Consider C=CC(=O)N1CCN(c2nc(=O)n(-c3c(C)ccnc3C(C)C)c3nc(-c4c(O)cccc4F)c(F)cc23)C(C)C1 (centres undefined) . Its measured viability, T/C is 23.8% [middle of 17 runs]

----------
Listed below: viability, T/C values for each entry.
# Test system: LG0567-F671-PDC KRAS tumor spheroid viability
# test details: Anticancer human tumor LG0567-F671-PDC cell line growth inhibition [KRAS2];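 also: drug exposure lasted seven days after spheroids formed for three days; 100% = DMSO vehicle control viability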
# test parameters: second compound 10 µM; first compound 0.316 µM; stronger effect = lower value; spheroids with HUVEC and MSC
Output spec: scalar in %, unitless text.

Some solved cases for reference:
CCN1CCN(Cc2ccc(Nc3ncc(F)c(-c4cc(F)c5nc(C)n(C(C)C)c5c4)n3)nc2)CC1 + CNCc1ccccc1-c1csc(C(C)Nc2nc(C)nc3cc(OC)c(OC)cc23)c1 = 0.13
CC(=O)OC12COC1CC(O)C1(C)C(=O)C(O)C3=C(C)C(OC(=O)C(O)C(NC(=O)OC(C)(C)C)c4ccccc4)CC(O)(C(OC(=O)c4ccccc4)C21)C3(C)C (stereo unspecified) + CC1OCC2(CCN(c3cnc(Sc4ccnc(N)c4Cl)c(N)n3)CC2)C1N = 9.93
CCNC(=O)CC1N=C(c2ccc(Cl)cc2)c2cc(OC)ccc2-n2c(C)nnc21 (stereo unspecified) + CC1OCC2(CCN(c3cnc(Sc4ccnc(N)c4Cl)c(N)n3)CC2)C1N = 7.18

Consider O=C(c1cc(Cc2n[nH]c(=O)c3ccccc23)ccc1F)N1CCN(C(=O)C2CC2)CC1 + COc1cc2nc(C)nc(NC(C)c3cc(N)cc(C(F)(F)F)c3)c2cc1OC1CCOC1 . Its measured viability, T/C is 68

Consider COc1cc(Nc2ncc3c(n2)-c2ccc(Cl)cc2C(c2c(F)cccc2OC)=NC3)ccc1C(=O)O + C=CC(=O)N1CCN(c2nc(=O)n(-c3c(C)ccnc3C(C)C)c3nc(-c4c(O)cccc4F)c(F)cc23)C(C)C1 . Its measured viability, T/C is 23.8

Consider O=C(c1cc(Cc2n[nH]c(=O)c3ccccc23)ccc1F)N1CCN(C(=O)C2CC2)CC1 + C=CC(=O)N1CCN(c2nc(=O)n(-c3c(C)ccnc3C(C)C)c3nc(-c4c(O)cccc4F)c(F)cc23)C(C)C1 . Its measured viability, T/C is 31.9

Consider CC1COCCN1c1cc(-c2ccnn2C)c2ccnc(-c3ccn[nH]3)c2n1 (stereo unspecified) + CC1OCC2(CCN(c3cnc(Sc4ccnc(N)c4Cl)c(N)n3)CC2)C1N . Its measured viability, T/C is 3.98

----------
# Tested on: LG0567-F671-PDC KRAS tumor spheroid viability
# test details: Anticancer human tumor LG0567-F671-PDC cell line growth inhibition [KRAS2];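 also: drug exposure lasted seven days after spheroids formed for three days; 100% = DMSO vehicle control viability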
# test parameters: second compound 0.1 µM; first compound 0.0316 µM; stronger effect = lower value; spheroids with HUVEC and MSC
Listed below: viability, T/C values for each entry.
Output spec: scalar in %, unitless text.

O=C(c1cc(Cc2n[nH]c(=O)c3ccccc23)ccc1F)N1CCN(C(=O)C2CC2)CC1 + COc1cc2nc(C)nc(NC(C)c3cc(N)cc(C(F)(F)F)c3)c2cc1OC1CCOC1 = 84.3
COc1cc(Nc2ncc3c(n2)-c2ccc(Cl)cc2C(c2c(F)cccc2OC)=NC3)ccc1C(=O)O + C=CC(=O)N1CCN(c2nc(OCC3CCCN3C)nc3c2CCN(c2cccc4cccc(C)c24)C3)CC1CC#N = 25.7

Below: the item to evaluate.
# COc1cc2nccc(Oc3ccc(NC(=O)C4(C(=O)Nc5ccc(F)cc5)CC4)cc3)c2cc1OC + C=CC(=O)N1CCN(c2nc(OCC3CCCN3C)nc3c2CCN(c2cccc4cccc(C)c24)C3)CC1CC#N with LG0567-F671-PDC KRAS tumor spheroid viability: viability, T/C is 23.5

----------
# System: LG0567-F671-PDC KRAS tumor spheroid viability
# test details: Anticancer human tumor LG0567-F671-PDC cell line growth inhibition [KRAS2];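 also: drug exposure lasted seven days after spheroids formed for three days; 100% = DMSO vehicle control viability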
# test parameters: second compound 0.1 µM; first compound 0.1 µM; stronger effect = lower value; spheroids with HUVEC and MSC
# Text: Multicellular complex tumor spheroid response to RAS pathway inhibitors in combination with a targeted agents in patient-derived cell lines with oncogenic KRAS variants from multiple cancer types A high-throughput screen of multi-cell type tumor spheroids was designed to identify active combinations of targeted small molecules and KRAS pathway inhibitors. […] Compounds. […] If the clinical Cmax for an agent had not been determined, the highest concentration tested was 10 microM. […]
quantity: viability, T/C

Some solved cases for reference:
CC1COCCN1c1cc(-c2ccnn2C)c2ccnc(-c3ccn[nH]3)c2n1 (stereo not drawn) + COc1cc2nc(C)nc(NC(C)c3cc(N)cc(C(F)(F)F)c3)c2cc1OC1CCOC1 = 50.1%
Cn1ncnc1[C@H]1c2n[nH]c(=O)c3cc(F)cc(c23)N[C@@H]1c1ccc(F)cc1 + C=CC(=O)N1CCN(c2nc(=O)n(-c3c(C)ccnc3C(C)C)c3nc(-c4c(O)cccc4F)c(F)cc23)C(C)C1 = 24.4%

Below: the item to evaluate.
Consider CN(C)C/C=C/C(=O)Nc1cc2c(Nc3ccc(F)c(Cl)c3)ncnc2cc1O[C@H]1CCOC1 + C=CC(=O)N1CCN(c2nc(=O)n(-c3c(C)ccnc3C(C)C)c3nc(-c4c(O)cccc4F)c(F)cc23)C(C)C1 . Its measured viability, T/C is 26.1%

----------
# Tested on: LG0567-F671-PDC KRAS tumor spheroid viability
# test details: Anticancer human tumor LG0567-F671-PDC cell line growth inhibition [KRAS2];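 also: drug exposure lasted seven days after spheroids formed for three days; 100% = DMSO vehicle control viability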
# test parameters: second compound 10 µM; first compound 0.00316 µM; stronger effect = lower value; spheroids with HUVEC and MSC
Using viability, T/C as the sorting value, the categories are 0 = under 0.4%, 1 = from 0.4% up to 20%, 2 = 20% and over

CC(C)n1nc(-c2ccc3oc(N)nc3c2)c2c(N)ncnc21 + C=CC(=O)N1CCN(c2nc(=O)n(-c3c(C)ccnc3C(C)C)c3nc(-c4c(O)cccc4F)c(F)cc23)C(C)C1 = 1
CN(C)C/C=C/C(=O)Nc1cc2c(Nc3ccc(F)c(Cl)c3)ncnc2cc1O[C@H]1CCOC1 + COc1cc2nc(C)nc(NC(C)c3cc(N)cc(C(F)(F)F)c3)c2cc1OC1CCOC1 = 2
CCN1CCN(Cc2ccc(Nc3ncc(F)c(-c4cc(F)c5nc(C)n(C(C)C)c5c4)n3)nc2)CC1 + CNCc1ccccc1-c1csc(C(C)Nc2nc(C)nc3cc(OC)c(OC)cc23)c1 = 0

Q) # bin label for CC(=O)Nc1cccc(-n2c(=O)n(C3CC3)c(=O)c3c(Nc4ccc(I)cc4F)n(C)c(=O)c(C)c32)c1 + CC1OCC2(CCN(c3cnc(Sc4ccnc(N)c4Cl)c(N)n3)CC2)C1N
A) 1

Q) # bin label for CN(C)C/C=C/C(=O)Nc1cc2c(Nc3ccc(F)c(Cl)c3)ncnc2cc1O[C@H]1CCOC1 + CNCc1ccccc1-c1csc(C(C)Nc2nc(C)nc3cc(OC)c(OC)cc23)c1
A) 0

Q) # bin label for CCN1CCN(Cc2ccc(Nc3ncc(F)c(-c4cc(F)c5nc(C)n(C(C)C)c5c4)n3)nc2)CC1 + C=CC(=O)N1CCN(c2nc(=O)n(-c3c(C)ccnc3C(C)C)c3nc(-c4c(O)cccc4F)c(F)cc23)C(C)C1
A) 2

Q) # bin label for CN(C)C/C=C/C(=O)Nc1cc2c(Nc3ccc(F)c(Cl)c3)ncnc2cc1O[C@H]1CCOC1 + C=CC(=O)N1CCN(c2nc(=O)n(-c3c(C)ccnc3C(C)C)c3nc(-c4c(O)cccc4F)c(F)cc23)C(C)C1
A) 1

Q) # bin label for CCN1CCN(Cc2ccc(Nc3ncc(F)c(-c4cc(F)c5nc(C)n(C(C)C)c5c4)n3)nc2)CC1 + CC1OCC2(CCN(c3cnc(Sc4ccnc(N)c4Cl)c(N)n3)CC2)C1N
A) 1
